target: Cyclin-dependent kinase 1 (Homo sapiens, UniProt P06493); experiment: In Vitro Kinase Inhibition Assay: In vitro kinase assay analysis may be performed using standard techniques described in the art. These techniques are also used by commercial services providers in order to offer in vitro kinase activity assay services, e.g. the assays offered by Millipore Inc. (worldwide website www(dot)millipore.com), ProQinase GmbH (worldwide website www(dot)proqinase.de) and others. All kinase assays were performed in 96-well FlashPlates from Perkin Elmer/NEN (Boston, Mass., USA) in a 50ul reaction volume. The reaction mixture was pipetted in four steps in the following order: 20ul of assay buffer (standard buffer),5ul of ATP solution (in H2O, 5 ul of test compound (in 10% DMSO), 10ul of substrate/10ul of enzyme solution (premixed)The assay for all enzymes contained 60 mM HEPES-NaOH (pH 7.5), 3 mM MgCl2, 3 mM MnCl2, 3uM Na-Orthovanadate, 1.2 mM DTT, 50 ug/ml PEG2000, 1 uM [33P]-ATP (approx. 5x1005 cpm per well).
Sequence (P06493 whole entry): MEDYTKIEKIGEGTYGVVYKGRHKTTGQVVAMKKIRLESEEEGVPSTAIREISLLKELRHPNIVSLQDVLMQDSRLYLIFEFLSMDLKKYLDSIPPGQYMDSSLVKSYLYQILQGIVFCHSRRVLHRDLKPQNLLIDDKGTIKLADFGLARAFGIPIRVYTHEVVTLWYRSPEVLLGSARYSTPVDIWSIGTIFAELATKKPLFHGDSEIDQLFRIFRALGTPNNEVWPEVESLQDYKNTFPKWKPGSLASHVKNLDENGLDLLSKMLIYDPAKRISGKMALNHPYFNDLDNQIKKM
parameter measured: pIC50
pIC50 here is simply -log10 of the concentration when that concentration is written in mol/L.

Item `COc1cc(F)ccc1-c1ccnc(NC(=O)[C@@H]2CC[C@H](NC(C)=O)C2)c1` with Cyclin-dependent kinase 1 (Homo sapiens, UniProt P06493) - pIC50?
5.73
